This listing pairs binders with measured koff.
Target: T1, recombinant monkey TfR (r monkey TfR: Sino Biological Inc.) (cynomolgus monkey (Macaca fascicularis), UniProt Q5RDH6 89-760 (Pongo abelii entry))
T1 construct: Bought product; also called r monkey TfR-ECD (Histag); cynomolgus monkey TfR; not shown: histidine tag attached to the N-terminus
T1 chain: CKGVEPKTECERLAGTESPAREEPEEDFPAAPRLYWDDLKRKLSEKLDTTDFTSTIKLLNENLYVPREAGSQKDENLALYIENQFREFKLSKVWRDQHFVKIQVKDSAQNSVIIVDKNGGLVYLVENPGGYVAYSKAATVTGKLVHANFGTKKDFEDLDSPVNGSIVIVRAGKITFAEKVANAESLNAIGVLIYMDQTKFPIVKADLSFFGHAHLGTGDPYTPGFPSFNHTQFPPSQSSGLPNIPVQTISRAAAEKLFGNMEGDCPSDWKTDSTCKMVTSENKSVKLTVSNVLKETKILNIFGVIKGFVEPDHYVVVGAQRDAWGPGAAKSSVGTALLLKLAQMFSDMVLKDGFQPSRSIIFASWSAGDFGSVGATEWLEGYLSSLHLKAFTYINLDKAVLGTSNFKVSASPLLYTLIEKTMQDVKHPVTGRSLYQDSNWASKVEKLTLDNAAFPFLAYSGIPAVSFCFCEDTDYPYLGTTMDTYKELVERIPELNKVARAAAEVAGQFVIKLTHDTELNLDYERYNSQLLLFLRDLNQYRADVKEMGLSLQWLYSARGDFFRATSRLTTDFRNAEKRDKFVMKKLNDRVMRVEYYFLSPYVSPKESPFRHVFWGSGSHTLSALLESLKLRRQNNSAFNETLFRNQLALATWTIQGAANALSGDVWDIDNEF
Test: BLI (Octet RED96), His-tagged TfR ECD loaded on Ni-NTA sensor, antibody as analyte
Use s⁻¹ as the unit, but write only the number.

1) anti-hTfR antibody No. 5 (antibody, V domains shown, Mouse hybridoma antibody purified on Protein G; also called mouse anti-hTfR antibody No. 5; product of Clone 5 line) VH: EVQLQESGPELVKPGASVKMSCKASGYTFTNFVIHWVKQRPGQGLEWIGFFNPHKNGAEYNEKFQVKATLTSDKSSTTAYMELNSLTSEDSAVYYCARSFYYYSMDYWGQGTSVTVSS VL: DIVMTQTPAIMSASPGEKVTMTCSASSSISSIHWYQQKPGTSPKRWIYDTSTLASGVPVRFSGSGSGTSYSLTISSMEAEDAATYYCHQRSSYPTFGGGTKLEIK | 0.000758
2) anti-hTfR antibody No. 6 (antibody, V domains shown, Mouse hybridoma antibody purified on Protein G; also called mouse anti-hTfR antibody No. 6; product of Clone 6 line) VH: EVQLQESGPGLVAPSQSLSITCSVSGFSLSTYGVYWVRQPPGKGLEWLGIIWGDGSTNYHSALISRLTISKDNSKSQVFLKLNSLQTADTATYYCAKPDDVWGAGTTVTVSS VL: DIVLTQTPSSLSASLGERVSLTCRASQEISGYLSWLQQKPDGTIKRLIYAASTLDSGVPKRFSGSRSGSDYSLTISSLESEDFADYYCLQYSSYPRTFGGGTKLEIK | 0.000236

q: For the binder anti-hTfR antibody No. 12 (antibody, V domains shown, Mouse hybridoma antibody purified on Protein G; also called mouse anti-hTfR antibody No. 12; product of Clone 12 line) VH: EVQLQESGAELARPGTSVKVSCKAAGYVFINYLIEWVKQRPGQGLEWIGVIHSGSGGTNYNDNFKDKATLTRDVSSSTAYMQLSSLTSDDSAVYFCARRNFGNYYFDYWGQGTTLTVSS VL: DIVLTQSHKFMSTVIGDRVSITCKASHDVKTAVAWYQQTPGQSPKLLTYWSSTRHTGVPDRFTGSGSGTDYTLTISSVQAEDLALYYCQQHFSTPLTFGAGTKLELK , what koff is on record?
a: 0.000126

Source listed as patent US20240262926A1.
